Tested on: LG0703-F948-PDC complex spheroid viability
METHOD_NOTES: Anticancer human tumor LG0703-F948-PDC patient-derived lung adenocarcinoma cell line growth inhibition; active means viability on the fitted dose curve at most 10% of control; inactive means the rest
CONDITION_DETAILS: second compound 3.16 µM; first compound 1 µM
Give your call using only these classes: T = active, F = inactive

Solved entries (count: 4):
Query :: What was the test verdict on Nc1ncn(C2CC(O)C(CO)O2)c(=O)n1 (stereo not given) + NC1CC1c1ccc(-c2cccc(O)c2)cc1 ?
Result :: F

Query :: Tell me the recorded outcome of this test for COc1ccc([C@@H](O)c2cc(-c3ncnc4cc(N5CCOCC5)ccc34)c(F)cc2Cl)nn1 + NC1CC1c1ccc(-c2cccc(O)c2)cc1 .
Result :: F

Query :: Query: recorded result category for COc1cc(Nc2ncc3c(n2)-c2ccc(Cl)cc2C(c2c(F)cccc2OC)=NC3)ccc1C(=O)O + NC1CC1c1ccc(-c2cccc(O)c2)cc1 in this test
Result :: T

Query :: Check the results log: what was the call for O=C(C=Cn1cnc(-c2cc(C(F)(F)F)cc(C(F)(F)F)c2)n1)NNc1cnccn1 + NC1CC1c1ccc(-c2cccc(O)c2)cc1 ?
Result :: F

***
Query :: Can you look up the reported call for CC1COCCN1c1cc(-c2ccnn2C)c2ccnc(-c3ccn[nH]3)c2n1 (stereo not given) + NC1CC1c1ccc(-c2cccc(O)c2)cc1 for me?
Result :: T

* * *

viability, T/C listing for selected molecules.
Test system: LG0703-F948-PDC complex spheroid viability
METHOD_NOTES: Anticancer human tumor LG0703-F948-PDC cell line growth inhibition;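 further: spheroids exposed to agents for seven days before readout; 100% = DMSO vehicle control wells as normalization base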
CONDITION_DETAILS: second compound 0.1 µM; first compound 0.001 µM; active compounds read low
Give the value in % but do not write % after it.

Query :: Provide one value: measured viability, T/C of CC(C)CC(NC(=O)CNC(=O)c1cc(Cl)ccc1Cl)B1OC(=O)CC(CC(=O)O)(C(=O)O)O1 (stereo not drawn) + NC1CCC(NC2CC2c2ccccc2)CC1
Result :: 95.6

Further cases:
Query :: // fetch viability, T/C given entry CC[C@@]1(O)C(=O)OCc2c1cc1n(c2=O)Cc2cc3c(CN(C)C)c(O)ccc3nc2-1 + NC1CC1c1ccc(-c2cccc(O)c2)cc1
Result :: 116

Query :: Report measured viability, T/C; entry is CC(C)CC(NC(=O)CNC(=O)c1cc(Cl)ccc1Cl)B1OC(=O)CC(CC(=O)O)(C(=O)O)O1 (stereo not drawn) + NC1CC1c1ccc(-c2cccc(O)c2)cc1
Result :: 102

Query :: Return viability, T/C (reported value) for this molecule: CC(C)CC(NC(=O)C(Cc1ccccc1)NC(=O)c1cnccn1)B(O)O (stereo not drawn) + NC1CC1c1ccc(-c2cccc(O)c2)cc1
Result :: 0.12

Query :: Supply viability, T/C value. Item: Cn1ncnc1C1c2n[nH]c(=O)c3cc(F)cc(c23)NC1c1ccc(F)cc1 (stereo not drawn) + NC1CC1c1ccc(-c2cccc(O)c2)cc1
Result :: 114

Query :: Please give measured viability, T/C of the following entry: CC(C)CC(NC(=O)C(Cc1ccccc1)NC(=O)c1cnccn1)B(O)O (stereo not drawn) + NC1CCC(NC2CC2c2ccccc2)CC1
Result :: 0.63

Query :: Indicate the recorded viability, T/C value for this molecule: Cn1ncnc1C1c2n[nH]c(=O)c3cc(F)cc(c23)NC1c1ccc(F)cc1 (stereo not drawn) + NC1CCC(NC2CC2c2ccccc2)CC1
Result :: 96.2

Query :: Provide only the value of recorded viability, T/C for CC[C@@]1(O)C(=O)OCc2c1cc1n(c2=O)Cc2cc3c(CN(C)C)c(O)ccc3nc2-1 + NC1CCC(NC2CC2c2ccccc2)CC1
Result :: 129

Each recorded value in this set is attributed to PubChem BioAssay AID1918952.
